assay: qHTS for Inhibitors of human tyrosyl-DNA phosphodiesterase 1 (TDP1): qHTS in cells in presence of CPT; conditions: chicken DT40 Tdp1-/-;hTDP1 cells + 20 nM CPT, ATP luminescence, 48 h; series mostly up to 46.2 µM; note: nearly all actives have a fitted effect of over 55% in size
In all, about 420,000 compounds went through this assay and about 50,000 (12%) were called active. Another 26% or so got no clear call; they are omitted. Calls come from the whole dose curve; as a rule, active = well fitted inhibition curve with a large enough effect; inconclusive = small, poorly fitted or top-dose-only effect; inactive = flat fitted curve, though single readings scatter. Only a selection was taken, and actives are over-represented in it overall.
Use one of these outcomes when replying: active, inactive

A selection of reference data follows.
compound="CCCNC(=O)C1(C)CCN(C(=O)c2ccc(F)cc2Cl)C1 (stereo not given)" group_label=inactive
compound=CC1(C)OC(=O)C2=C(C[C@@H](C3CC3)O[C@H]2c2ccc(Cl)cc2)O1 group_label=inactive

Qu. Each compound tested received a call. Report the one for Cn1cc(C(=O)NCc2ccccc2F)cn1 .
Ans. inactive

====

assay: qHTS for Inhibitors of human tyrosyl-DNA phosphodiesterase 1 (TDP1): qHTS in cells in presence of CPT; settings: chicken DT40 Tdp1-/-;hTDP1 cells + 20 nM CPT, ATP luminescence, 48 h; series mostly up to 46.2 µM; note: nearly all actives have a fitted effect of over 55% in size
In all, about 420,000 compounds went through this assay and about 50,000 (12%) were called active. Another 26% or so got no clear call; they are omitted. Calls come from the whole dose curve; as a rule, active = well fitted inhibition curve with a large enough effect; inconclusive = small, poorly fitted or top-dose-only effect; inactive = flat fitted curve, though single readings scatter. What follows is part of a selection rich in actives, with near analogues and random picks from the rest.
Use one of these outcomes when replying: 1 (active), 0 (inactive)

compound=COc1cccc(/C=N/Nc2cc(C)nc(-c3ccccc3O)n2)c1O group_label=1

Qu. Each compound tested received a call. Report the one for Cc1cc(C(=O)N/N=C/c2ccccc2[N+](=O)[O-])c(C)o1 .
Ans. 0

====

experiment: qHTS for Inhibitors of human tyrosyl-DNA phosphodiesterase 1 (TDP1): qHTS in cells in presence of CPT; conditions: chicken DT40 Tdp1-/-;hTDP1 cells + 20 nM CPT, ATP luminescence, 48 h; series mostly up to 46.2 µM; note: nearly all actives have a fitted effect of over 55% in size
Screen size: about 420,000 compounds; about 50,000 (12%) were called active. Inconclusive results (about 26%) are left out. Calls follow the shape of the dose curve; as a rule, active = well fitted inhibition curve with a large enough effect; inconclusive = small, poorly fitted or top-dose-only effect; inactive = flat fitted curve, though single readings scatter. What follows is part of a selection rich in actives, with near analogues and random picks from the rest.
Use one of these outcomes when replying: active, inactive

smiles_record=NS(=O)(=O)c1ccc(CCNC(=S)Nc2ccc(S(N)(=O)=O)cc2)cc1 group_label=inactive
smiles_record=Cc1noc(C)c1NC(=O)N(C)C[C@@H]1Oc2cc(Br)ccc2S(=O)(=O)N([C@@H](C)CO)C[C@H]1C group_label=inactive
smiles_record=O=C(NCC(=O)N1CCN(c2ncc(C(F)(F)F)cc2Cl)CC1)c1ccc(Br)o1 group_label=active
smiles_record=Cc1cc(NC(=O)CCS(=O)(=O)c2ccc(F)cc2)no1 group_label=inactive
smiles_record=Cn1c(SCC(=O)N/N=C/c2ccc(O)c(O)c2)nc2ccccc21 group_label=inactive

Qu. Each compound tested received a call. Report the one for CC(C)Cn1c(=O)c2ccccc2n2c(CCC(=O)N3CCN(c4cccc(Cl)c4)CC3)nnc12 .
Ans. active

Qu. Each compound tested received a call. Report the one for COc1cc(NC(=O)COc2ccccc2Cl)ccc1NC(=O)C(C)C .
Ans. inactive

Qu. Each compound tested received a call. Report the one for CSc1nc(O)c(Cc2ccccc2)c(=O)[nH]1 .
Ans. inactive

Qu. Each compound tested received a call. Report the one for CCCSc1nc2[nH]ncc2c(=O)[nH]1 .
Ans. inactive

====

assay: qHTS for Inhibitors of human tyrosyl-DNA phosphodiesterase 1 (TDP1): qHTS in cells in presence of CPT; settings: chicken DT40 Tdp1-/-;hTDP1 cells + 20 nM CPT, ATP luminescence, 48 h; series mostly up to 46.2 µM; note: nearly all actives have a fitted effect of over 55% in size
Among all 420,000 compounds or so, about 50,000 (12%) were called active. Another 26% or so got no clear call; they are omitted. Calls follow the shape of the dose curve; as a rule, active = well fitted inhibition curve with a large enough effect; inconclusive = small, poorly fitted or top-dose-only effect; inactive = flat fitted curve, though single readings scatter. Only a selection was taken, and actives are over-represented in it overall.
Use one of these outcomes when replying: active, inactive

molecule=CSc1ncc(C(=O)NCCCc2ccccc2)c(C)n1 group_label=inactive
molecule="CC1C(=O)Nc2ccc(S(=O)(=O)N3CCN(c4ccccc4F)CC3)cc2NC1=O (stereo not drawn)" group_label=active

Qu. Each molecule tested received a call. Report the one for CCOc1ccc(-n2cnnn2)cc1S(=O)(=O)N1CCC(C)CC1C (stereo not drawn) .
Ans. inactive

====

experiment: qHTS for Inhibitors of human tyrosyl-DNA phosphodiesterase 1 (TDP1): qHTS in cells in presence of CPT; conditions: chicken DT40 Tdp1-/-;hTDP1 cells + 20 nM CPT, ATP luminescence, 48 h; series mostly up to 46.2 µM; note: nearly all actives have a fitted effect of over 55% in size
The whole screen tested about 420,000 compounds, of which about 50,000 (12%) were called active. Inconclusive results (about 26%) are left out. Calls follow the shape of the dose curve; as a rule, active = well fitted inhibition curve with a large enough effect; inconclusive = small, poorly fitted or top-dose-only effect; inactive = flat fitted curve, though single readings scatter. What follows is part of a selection rich in actives, with near analogues and random picks from the rest.
Use one of these outcomes when replying: active, inactive

compound=CCCCC(=O)N/N=C(\C)CC(=O)Nc1cc(Cl)ccc1OC group_label=inactive

Qu. Each compound tested received a call. Report the one for COc1ccc(CCNC(=O)COC(=O)Cc2cc(OC)c(OC)c(OC)c2)cc1 .
Ans. inactive

Qu. Each compound tested received a call. Report the one for CC(=O)Nc1ccc(OCC(=O)NCc2ccc(C)cc2)cc1 .
Ans. inactive

Qu. Each compound tested received a call. Report the one for CCCN(CCC)C(=S)Nc1cc(C(=O)OC)ccc1C(=O)OC .
Ans. active

Qu. Each compound tested received a call. Report the one for CCN(CC)S(=O)(=O)c1ccc(N2CCOCC2)c(NC(=O)C2COc3ccccc3O2)c1 (stereo unspecified) .
Ans. active

Qu. Each compound tested received a call. Report the one for CCC1SC(CC)C(=O)N(CC(=O)NC2CCCCC2)C1=O (stereo unspecified) .
Ans. inactive

Qu. Each compound tested received a call. Report the one for CCOC1CS(=O)(=O)CC1OCC (stereo unspecified) .
Ans. inactive

Qu. Each compound tested received a call. Report the one for CCOc1cc(CNCCN(C)C)c(Cl)cc1OCC(=O)NCCc1ccccc1 .
Ans. inactive

Qu. Each compound tested received a call. Report the one for CC(C)N(C(=O)Cn1cc(SCC(=O)N2CCCC2)c2ccccc21)C(C)C .
Ans. inactive

====

test: qHTS for Inhibitors of human tyrosyl-DNA phosphodiesterase 1 (TDP1): qHTS in cells in presence of CPT; settings: chicken DT40 Tdp1-/-;hTDP1 cells + 20 nM CPT, ATP luminescence, 48 h; series mostly up to 46.2 µM; note: nearly all actives have a fitted effect of over 55% in size
About 50,000 (12%) of roughly 420,000 compounds were called active. Not shown: some 26% with an inconclusive outcome. Calls follow the shape of the dose curve; as a rule, active = well fitted inhibition curve with a large enough effect; inconclusive = small, poorly fitted or top-dose-only effect; inactive = flat fitted curve, though single readings scatter. For the sample, actives were picked, then their nearest neighbours and some compounds at random.
Use one of these outcomes when replying: active, inactive

A selection of reference data follows.
compound="CCOC(=O)C1CCc2nc3ccccc3c(=O)n21 (stereo not given)" group_label=inactive
compound=Nc1ncc(-c2cc3ccccc3oc2=O)s1 group_label=inactive
compound=C/C(=N\NC(=O)OC(C)(C)C)c1ccc[nH]1 group_label=inactive
compound="CCOC(=O)N1CCN(C(c2cccnc2)c2ccc3cccnc3c2O)CC1 (stereo not given)" group_label=active
compound="OCCC1CN(Cc2ccc3nsnc3c2)CCN1C1CCCC1 (stereo not given)" group_label=inactive

Qu. Each compound tested received a call. Report the one for COCCNC(=O)C(c1ccc(O)cc1)N(C(=O)CCC(=O)Nc1nccs1)c1ccc(C)cc1 (stereo not given) .
Ans. inactive

Qu. Each compound tested received a call. Report the one for CCCn1c(C(C)Nc2nc(-c3ccc(C)cc3)cs2)nc2cc(Cl)c(N3CCCCC3)cc21 (stereo not given) .
Ans. inactive

====

experiment: qHTS for Inhibitors of human tyrosyl-DNA phosphodiesterase 1 (TDP1): qHTS in cells in presence of CPT; details: chicken DT40 Tdp1-/-;hTDP1 cells + 20 nM CPT, ATP luminescence, 48 h; series mostly up to 46.2 µM; note: nearly all actives have a fitted effect of over 55% in size
In all, about 420,000 compounds went through this assay and about 50,000 (12%) were called active. About 26% were inconclusive and are not listed. This is one part of a sample in which actives are shown more often than they occur.
assay.readout: outcome

compound="CCC(C)CCN1CCN=C1N(C)C (stereo not drawn)" assay_readout=outcome result=inactive
compound=CC1=CC2=NC(=O)/C(=C/c3coc4ccccc4c3=O)C(=N)N2O1 assay_readout=outcome result=inactive
compound=CCOC(=O)c1c(-c2ccc(-c3ccccc3)cc2)csc1NC(=O)CCC(=O)O assay_readout=outcome result=inactive

====

experiment: qHTS for Inhibitors of human tyrosyl-DNA phosphodiesterase 1 (TDP1): qHTS in cells in presence of CPT; details: chicken DT40 Tdp1-/-;hTDP1 cells + 20 nM CPT, ATP luminescence, 48 h; series mostly up to 46.2 µM; note: nearly all actives have a fitted effect of over 55% in size
About 50,000 (12%) of roughly 420,000 compounds were called active. Not shown: some 26% with an inconclusive outcome. Calls come from the whole dose curve; as a rule, active = well fitted inhibition curve with a large enough effect; inconclusive = small, poorly fitted or top-dose-only effect; inactive = flat fitted curve, though single readings scatter. Shown is part of a subset that was picked to be rich in actives.
Use one of these outcomes when replying: active, inactive

molecule=COc1cc(Cl)c(C)cc1NC(=O)COC(=O)c1cc(SC)ccc1Cl group_label=inactive
molecule=COc1ccc(NC(=O)CN(C)C(=O)c2cc(C)oc2C)cc1 group_label=inactive
molecule=CCCCn1c(N)c(N(CCC(C)C)C(=O)c2ccc([N+](=O)[O-])o2)c(=O)[nH]c1=O group_label=inactive
molecule=NC(=O)c1ccccc1N(Cc1ccccc1)S(=O)(=O)c1ccccc1 group_label=inactive
molecule=Cc1nc(SCC(=O)N2CCN(c3ccccc3)CC2)[nH]c(=O)c1C group_label=inactive

Qu. Each molecule tested received a call. Report the one for O=C(NCCC1=CCCCC1)C1CCN(Cc2cnn(-c3ccccc3)c2-n2cccc2)CC1 .
Ans. active

Qu. Each molecule tested received a call. Report the one for COCCNC(=O)C1CCCN(Cc2ccccc2Cl)CC1 (configuration not stated) .
Ans. inactive

Qu. Each molecule tested received a call. Report the one for COc1ccc(-n2c(SCC(=O)Nc3ccc(Cl)c(C)c3)nc3n[nH]c(C)c3c2=N)cc1 .
Ans. active

Qu. Each molecule tested received a call. Report the one for CCOC(=O)N1CCN(S(=O)(=O)c2ccc(OC)cc2)CC1 .
Ans. inactive

Qu. Each molecule tested received a call. Report the one for CCCOC(=O)Cc1c(O)c2ccccc2[nH]c1=O .
Ans. inactive

Qu. Each molecule tested received a call. Report the one for O=C(c1ccncc1)N1CCC2(CCCN(C(c3ccccc3)c3ccccc3)C2)CC1 .
Ans. active

Qu. Each molecule tested received a call. Report the one for COc1ccc(-n2c(Cc3cccn3C)nnc2SCC(=O)Nc2cc(C)cc(C)c2)cc1 .
Ans. inactive

Qu. Each molecule tested received a call. Report the one for CS(=O)(=O)c1ccc(C(=O)NNC(=O)c2cccs2)cc1 .
Ans. inactive

Qu. Each molecule tested received a call. Report the one for Nc1c(N(CCCO)C(=O)C2CCCC2)c(=O)[nH]c(=O)n1Cc1ccccc1 .
Ans. inactive

Qu. Each molecule tested received a call. Report the one for Cc1nnc(NC(=O)Cn2c(=O)sc3ccccc32)s1 .
Ans. inactive

Qu. Each molecule tested received a call. Report the one for CC(=O)Nc1ccc(NC(=O)CSCc2cnn(-c3ccccc3)c2-n2cccc2)cc1 .
Ans. inactive

Qu. Each molecule tested received a call. Report the one for Cc1cc(S(=O)(=O)NC2CCCC2)ccc1-n1cnnn1 .
Ans. inactive
